# Lookup of reported Papp at 3 h keyed by entry
- test_description: Apparent permeability in human Caco-2 cells incubated for 180 mins by LC-MS/MS method
- Assay type: ADME, cell-based
Positions of bridges follow the written chain, without caps; N, C: chain ends. Non-standard residues stand in square brackets, D forms with d. Residues, ends and D or L forms follow the SMILES beside them. *: point of attachment. hPhe(3-Cl-4-CF3) = N[C@@H](CCc1ccc(C(F)(F)F)c(Cl)c1)C(=O)O; NMeCha = CN[C@@H](CC1CCCCC1)C(=O)O; NMeChg = CN[C@H](C(=O)O)C1CCCCC1; NMeD = CN[C@@H](CC(=O)O)C(=O)O; NMeL = CN[C@@H](CC(C)C)C(=O)O; NMeV = CN[C@H](C(=O)O)C(C)C; NMeA = CN[C@@H](C)C(=O)O; Piperidide = C1CCN(*)CC1; Ac5c = NC1(C(=O)O)CCCC1; Aze = O=C(O)[C@@H]1CCN1; Sar = CNCC(=O)O
Form entry: value (×10⁻⁶ cm/s) — number only.

input: Given the entry CC[C@H](C)[C@@H]1NC(=O)[C@H](CC(C)C)N(C)C(=O)C[C@@H](C(=O)N2CCCCC2)N(C)C(=O)[C@H](C(C)C)N(C)C(=O)C2(CCCC2)NC(=O)[C@@H]2CCCN2C(=O)[C@H](CCc2ccc(C(F)(F)F)c(Cl)c2)NC(=O)CN(C)C(=O)[C@H](CC2CCCCC2)N(C)C(=O)[C@@H]2CCN2C(=O)[C@H](C)N(C)C1=O ([NMeL]I[NMeA][Aze][NMeCha][Sar][hPhe(3-Cl-4-CF3)]P[Ac5c][NMeV][NMeD]-Piperidide; lactam N-11) , report its measured Papp at 3 h.
output: 1.3

input: // next record CC[C@H](C)[C@@H]1NC(=O)[C@H](C)N(C)C(=O)C[C@@H](C(=O)N2CCCCC2)N(C)C(=O)[C@H](C2CCCCC2)N(C)C(=O)C2(CCCC2)NC(=O)[C@@H]2CCCN2C(=O)[C@H](CCc2ccc(C(F)(F)F)c(Cl)c2)NC(=O)CN(C)C(=O)[C@H](CC2CCCCC2)N(C)C(=O)CN(C)C(=O)CN(C)C1=O ([NMeA]I[Sar][Sar][NMeCha][Sar][hPhe(3-Cl-4-CF3)]P[Ac5c][NMeChg][NMeD]-Piperidide; lactam N-11)
output: 0.56

Data credit: ChEMBL document CHEMBL5550184
